experiment: Neurotoxicity against mouse HT-22 cells assessed as cell survival at 20 uM treated for 24 hrs by MTS assay; assay type: toxicity, cell-based; settings: ht-22, 24 h
readout-label: Activity

- compound-structure-string: "CCSC1=N/C(=C\\c2ccc3c(c2)OCO3)C(=O)N1"
  experimental-result: "Non-Toxic"
- compound-structure-string: "COc1cc(/C=C2\\N=C(Nc3ccc(N4CCN(C)CC4)cc3)NC2=O)ccc1O"
  experimental-result: "Non-Toxic"
- compound-structure-string: "CCCCOc1ccc(/C=C2\\N=C(Nc3ccccc3)NC2=O)cc1OC"
  experimental-result: "Non-Toxic"
- compound-structure-string: "O=C1NC(Nc2ccc(N3CCNCC3)cc2)=N/C1=C\\c1ccc2c(c1)OCO2"
  experimental-result: "Non-Toxic"
- compound-structure-string: "O=C1OC(Nc2ccccc2)=N/C1=C\\c1ccc2c(c1)OCO2"
  experimental-result: "Non-Toxic"
- compound-structure-string: "Cn1cc(Cc2ccc3c(c2)OCO3)nc1N"
  experimental-result: "Non-Toxic"
- compound-structure-string: "O=C1NC(Nc2ccc(N3CCCCC3)cc2)=N/C1=C\\c1ccc2c(c1)OCO2"
  experimental-result: "Non-Toxic"

----------
target: Dual specificity tyrosine-phosphorylation-regulated kinase 1A (Homo sapiens); assay: Inhibition of GST-fused human recombinant DYRK1A expressed in Escherichia coli using GRSRSRSRSRSR peptide as substrate incubated for 30 mins in presence of ATP by scintillation counting method
So basically, if IC50 comes in under 70 nM it's true (1), and if it's 70 nM or more it's false (0).

- compound-structure-string: "O=C1NC(Nc2ccc(N3CCNCC3)cc2)=N/C1=C\\c1ccc2c(c1)OCO2"
  category: "false (0)"
- compound-structure-string: "O=C1NC(Nc2cccc(F)c2)=N/C1=C\\c1ccc2c(c1)OCO2"
  category: "true (1)"
- compound-structure-string: "O=C1NC(Nc2ccccc2)=N/C1=C\\c1ccc(F)cc1"
  category: "false (0)"
- compound-structure-string: "CCCNC1=N/C(=C\\c2ccc3c(c2)OCO3)C(=O)N1CCC"
  category: "false (0)"
- compound-structure-string: "NC1=N/C(=C\\c2ccc3c(c2)OCO3)C(=O)N1"
  category: "true (1)"
- compound-structure-string: "CCCCCCc1ccc(NC2=N/C(=C\\c3ccc(O)c(OC)c3)C(=O)N2)cc1"
  category: "false (0)"
- compound-structure-string: "CCCCCOc1ccc(NC2=N/C(=C\\c3ccc4c(c3)OCO4)C(=O)N2)cc1"
  category: "false (0)"
- compound-structure-string: "O=C1NC(Nc2ccccc2)=N/C1=C\\c1cccc(F)c1"
  category: "false (0)"
- compound-structure-string: "O=C1NC(Nc2ccccn2)=N/C1=C\\c1ccc2c(c1)OCO2"
  category: "true (1)"
- compound-structure-string: "COc1ccc(NC2=N/C(=C\\c3ccc4c(c3)OCO4)C(=O)N2)cc1"
  category: "false (0)"
- compound-structure-string: "CCCSC1=N/C(=C\\c2ccc3c(c2)OCO3)C(=O)N1C"
  category: "false (0)"
- compound-structure-string: "O=C1NC(Nc2ccccc2)=N/C1=C\\c1ccc2c(c1)OCCO2"
  category: "false (0)"
- compound-structure-string: "CCSC1=N/C(=C\\c2ccc3c(c2)OCO3)C(=O)N1C"
  category: "false (0)"
